- PROCEDURE_TEXT: Exploratory (pilot) study: serum concentrations and cutaneous vasomotor reaction after different oral PZA doses in two subjects
- Type: in vivo, human
- TEST_CONTEXT: human, serum, po; exploratory study, subject two, 600 mg, 2 h; read-out: Serum PZG, 2 h
REPORTED_PROPERTY: concentration at 2 h (ng/mL)
Answer in ng/mL, number only, no unit symbol.

# input Please look up its concentration at 2 h: "O=C(O)c1cnccn1"
# output 12000

====

- PROCEDURE_TEXT: Serum concentration of PZG or PZA after single oral dose in the crossover study
- Assay type: in vivo
- TEST_CONTEXT: human, 900 mg, 2 h after single oral dose (PZG 900 mg, PZA 300 mg), 8 normal subjects, read-out: Serum concentration of PZG or PZA, mean
REPORTED_PROPERTY: concentration at 2 h

# input // returns reported concentration at 2 h for input "NC(N)=NC(=O)c1cnccn1"
# output 5100 ng/mL

====

- PROCEDURE_TEXT: Serum concentration of PZG or PZA after single oral dose in the crossover study
- Type: in vivo
- TEST_CONTEXT: human, 300 mg, single 300-mg dose of PZA, individual subjects one, read-out: PZA 2-hour serum conc
- Procedure: Eight male nonsmoking subjects aged 24-32 participated. They were normal by history, physical exam and routine laboratory analysis of blood and urine. This was a single-blind, three-phase crossover study beginning after a 10-hour fast at 8 a.m., designated time 0 (control), when the first venipuncture occurred. In phase I, three capsules of lactose were given orally, followed by venipunctures 2 and 4 h later. […]
REPORTED_PROPERTY: concentration at 2 h (ng/mL)
Provide the reading as a plain figure in ng/mL.

# input What value of concentration at 2 h has been reported for the following molecule? O=C(O)c1cnccn1 [PZA, pyrazinoic acid]
# output 5600

====

- PROCEDURE_TEXT: Exploratory (pilot) study: serum concentrations and cutaneous vasomotor reaction after different oral PZA doses in two subjects
- Format: in vivo, human
- TEST_CONTEXT: human, serum, po; exploratory study, subject, 300 mg, 2 h; read-out: Serum PZG, 2 h
REPORTED_PROPERTY: concentration at 2 h (µg/mL)
Give just the number in µg/mL; leave the unit off.

# input Look up concentration at 2 h: "O=C(O)c1cnccn1"
# output 4.8

====

- PROCEDURE_TEXT: Exploratory (pilot) study: serum concentrations and cutaneous vasomotor reaction after different oral PZA doses in two subjects
- Format: in vivo, human
- TEST_CONTEXT: human, serum, po; exploratory study, subject two, 600 mg
- From the text: Comparisons of mean serum or plasma concentrations ±SD during placebo, PZG and PZA phases are presented in Table 1 for glucose, insulin, C-peptide, free fatty acids and norepinephrine. Comparisons of mean serum or plasma concentrations ±SD during these three phases are presented in Table 2 for triglycerides, VLDL, LDL, HDL, total cholesterol, fibrinogen and serum PZG and PZA concentrations. […]
REPORTED_PROPERTY: half-life (h)
Just the number in h, nothing appended.

# input # query: half-life of entry "O=C(O)c1cnccn1"
# output 5

====

- PROCEDURE_TEXT: Serum concentration of PZG or PZA after single oral dose in the crossover study
- Format: in vivo
- TEST_CONTEXT: human, 300 mg, 2 h after single oral dose (PZG 900 mg, PZA 300 mg), 8 normal subjects, read-out: Serum concentration of PZG or PZA, mean
REPORTED_PROPERTY: concentration at 2 h (ng/mL)
All answers are understood in ng/mL, so give the number only.

# input Given the compound "O=C(O)c1cnccn1" , what is its reported concentration at 2 h?
# output 5000
